Measured viability, T/C, listed per entry.
Test system: 439559-082-T-J2-PDC spheroids viability
Assay method text: Anticancer human tumor 439559-082-T-J2-PDC patient-derived colon adenocarcinoma cell line growth inhibition [GQUAD]
Conditions used: second compound 1 µM; first compound 3.16 µM; stronger effect = lower value
Give the value in % but do not write % after it.

Task: Suppose we examine the compound CC(C)(O)C1CCC(Nc2ccc3ncc(-c4cccc(C(F)(F)F)c4)n3n2)CC1 (stereo unspecified) + Cc1[nH]c2ccc(F)cc2c1-c1nc2c3cccnc3c3ncccc3c2[nH]1 ; what viability, T/C value has been reported?
Output: 61.4

Task: What value of viability, T/C has been reported for the following compound? C=CCn1c(=O)c2cnc(Nc3ccc(N4CCN(C)CC4)cc3)nc2n1-c1cccc(C(C)(C)O)n1 + Cc1cnc(CNC(=O)c2c(=O)c3ccc(N4CCCN(C)CC4)nc3n3c2sc2ccccc23)cn1
Output: 27.3

Task: Value lookup for viability, T/C; key = CC1COCCN1c1cc(C2(O)CC3CCC(C2)O3)c2cnn(-c3ccn[nH]3)c2n1 (stereo unspecified) + Cc1[nH]c2ccc(F)cc2c1-c1nc2c3cccnc3c3ncccc3c2[nH]1
Output: 40.3

---
Task: Which viability, T/C reading was recorded for the compound C#Cc1c(F)ccc2cc(O)cc(-c3ncc4c(N5CC6CCC(C5)N6)nc(OCC56CCCN5CC(F)C6)nc4c3F)c12 (stereo unspecified) + Cc1cnc(CNC(=O)c2c(=O)c3ccc(N4CCCN(C)CC4)nc3n3c2sc2ccccc23)cn1 ?
Output: 49.5

====

Entries and their viability, T/C
System: 439559-082-T-J2-PDC spheroids viability
Assay method text: Anticancer human tumor 439559-082-T-J2-PDC cell line growth inhibition [GQUAD];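 note: spheroids exposed to the agents for 7 days before readout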;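 for viability, T/C: percent of luminescence signal in DMSO vehicle wells taken as 100% viability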
Conditions used: second compound 3.16 µM; first compound 0.1 µM; stronger effect = lower value
Text: DNA G-quadruplex Stabilizer Agents in Combinations in Complex Spheroids A high-throughput screen of multi-cell type tumor spheroids was designed to identify active combinations of DNA G-quadruplex stabilizer agents and targeted small molecules. […] Compounds. […] If the clinical Cmax for an agent had not been determined, the highest concentration tested was 10 microM. […]

Task: Return reported viability, T/C; argument: C=CCn1c(=O)c2cnc(Nc3ccc(N4CCN(C)CC4)cc3)nc2n1-c1cccc(C(C)(C)O)n1 + Cc1[nH]c2ccc(F)cc2c1-c1nc2c3cccnc3c3ncccc3c2[nH]1
Output: 80.2%

Task: Dear colleague, I am looking for the recorded viability, T/C of the following compound: Cc1cccc(N(C)C(=O)C2C(O)CCN2c2nc(C)cc(C(F)(F)F)c2C#N)c1 (stereo not drawn) + Cc1[nH]c2ccc(F)cc2c1-c1nc2c3cccnc3c3ncccc3c2[nH]1
Output: 77.7%

Continuing:
Task: Return reported viability, T/C; argument: O=C(c1cc(Cc2n[nH]c(=O)c3ccccc23)ccc1F)N1CCN(C(=O)C2CC2)CC1 + Cc1[nH]c2ccc(F)cc2c1-c1nc2c3cccnc3c3ncccc3c2[nH]1
Output: 79%

====

Tested on: 439559-082-T-J2-PDC spheroids viability
Assay method text: Anticancer human tumor 439559-082-T-J2-PDC cell line growth inhibition [GQUAD];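 note: spheroids exposed to the agents for 7 days before readout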;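 for viability, T/C: percent of luminescence signal in DMSO vehicle wells taken as 100% viability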
Conditions used: second compound 0.316 µM; first compound 0.316 µM; stronger effect = lower value
Entries whose viability, T/C is below 80% take Criterion met; entries at or above 80% take Criterion not met.

Observe how each entry below is paired with its result.
Task: Report whether reported viability, T/C is lower than 80% (strictly) for CC1COCCN1c1cc(C2(S(C)(=N)=O)CC2)nc(-c2ccnc3[nH]ccc23)n1 (stereo not drawn) + Cc1[nH]c2ccc(F)cc2c1-c1nc2c3cccnc3c3ncccc3c2[nH]1
Output: Criterion not met

Task: Bench note: check whether CCCS(=O)(=O)Nc1ccc(F)c(C(=O)c2c[nH]c3ncc(-c4ccc(Cl)cc4)cc23)c1F + Cc1[nH]c2ccc(F)cc2c1-c1nc2c3cccnc3c3ncccc3c2[nH]1 shows viability, T/C below 80%
Output: Criterion not met

Task: Is 80% strictly greater than the molecule's reported viability, T/C? molecule: Cn1ncnc1[C@H]1c2n[nH]c(=O)c3cc(F)cc(c23)N[C@@H]1c1ccc(F)cc1 + CN(C)c1ccc(Nc2c3ccc(NC(=O)CCN4CCCC4)cc3nc3cc(NC(=O)CCN4CCCC4)ccc23)cc1
Output: Criterion not met

Task: Does O=c1[nH]cc(F)c(=O)[nH]1 + Cc1cnc(CNC(=O)c2c(=O)c3ccc(N4CCCN(C)CC4)nc3n3c2sc2ccccc23)cn1 have viability, T/C strictly under 80%?
Output: Criterion met

Continuing:
Task: Lab note: viability, T/C threshold 80%. Does this molecule come in strictly under it? O=C(NO)c1cnc(N2CCN(S(=O)(=O)c3ccc4ccccc4c3)CC2)nc1 + CN(C)c1ccc(Nc2c3ccc(NC(=O)CCN4CCCC4)cc3nc3cc(NC(=O)CCN4CCCC4)ccc23)cc1
Output: Criterion met

Task: Record CC(C)(O)C1CCC(Nc2ccc3ncc(-c4cccc(C(F)(F)F)c4)n3n2)CC1 (stereo not drawn) + Cc1cnc(CNC(=O)c2c(=O)c3ccc(N4CCCN(C)CC4)nc3n3c2sc2ccccc23)cn1 : is its viability, T/C strictly below 80%?
Output: Criterion met

====

Tested on: 439559-082-T-J2-PDC spheroids viability
Assay method text: Anticancer human tumor 439559-082-T-J2-PDC cell line growth inhibition [GQUAD];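 note: spheroids exposed to the agents for 7 days before readout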
Conditions used: curve of first compound; second compound 0.316 µM
Listing: IC50 of selected molecules
Give the value, in units of nM, as a plain number.

Here are 4 molecules together with their reported answers.
Task: Please look up its IC50: CCc1c2c(nc3ccc(O)cc13)-c1cc3c(c(=O)n1C2)COC(=O)[C@]3(O)CC + CN(C)c1ccc(Nc2c3ccc(NC(=O)CCN4CCCC4)cc3nc3cc(NC(=O)CCN4CCCC4)ccc23)cc1
Output: 207

Task: Find the recorded IC50 belonging to Nc1ccn(C2OC(CO)C(O)C2(F)F)c(=O)n1 (stereo not given) + Cc1[nH]c2ccc(F)cc2c1-c1nc2c3cccnc3c3ncccc3c2[nH]1 and report it.
Output: 362

Task: Query (molecule): CC1COCCN1c1cc(C2(O)CC3CCC(C2)O3)c2cnn(-c3ccn[nH]3)c2n1 (stereo not given) + CN(C)c1ccc(Nc2c3ccc(NC(=O)CCN4CCCC4)cc3nc3cc(NC(=O)CCN4CCCC4)ccc23)cc1 ; field requested: IC50
Output: 959

Task: Reported IC50, molecule CC1COCCN1c1cc(-c2ccnn2C)c2ccnc(-c3ccn[nH]3)c2n1 (stereo not given) + CN(C)c1ccc(Nc2c3ccc(NC(=O)CCN4CCCC4)cc3nc3cc(NC(=O)CCN4CCCC4)ccc23)cc1 : ____
Output: 224

Next:
Task: Need IC50 of CC1COCCN1c1cc(-c2ccnn2C)c2ccnc(-c3ccn[nH]3)c2n1 (stereo not given) + Cc1[nH]c2ccc(F)cc2c1-c1nc2c3cccnc3c3ncccc3c2[nH]1 , thanks.
Output: 295

====

Tested on: 439559-082-T-J2-PDC spheroids viability
Assay method text: Anticancer human tumor 439559-082-T-J2-PDC cell line growth inhibition [GQUAD];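 note: spheroids exposed to the agents for 7 days before readout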;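 for viability, T/C: percent of luminescence signal in DMSO vehicle wells taken as 100% viability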
Conditions used: second compound 3.16 µM; first compound 0.316 µM; stronger effect = lower value
Assay endpoint: viability, T/C (%)
Kindly answer with a numeric value in %, unit omitted.

Task: Checklist item: viability, T/C tested on 439559-082-T-J2-PDC spheroids viability, entry CCCS(=O)(=O)Nc1ccc(F)c(C(=O)c2c[nH]c3ncc(-c4ccc(Cl)cc4)cc23)c1F + Cc1[nH]c2ccc(F)cc2c1-c1nc2c3cccnc3c3ncccc3c2[nH]1 , value?
Output: 79.5

Task: Find the measured viability, T/C: item Cc1cccc(N(C)C(=O)C2C(O)CCN2c2nc(C)cc(C(F)(F)F)c2C#N)c1 (centres undefined) + Cc1cnc(CNC(=O)c2c(=O)c3ccc(N4CCCN(C)CC4)nc3n3c2sc2ccccc23)cn1 , target or system 439559-082-T-J2-PDC spheroids viability.
Output: 71.9

Task: Request - read-out viability, T/C | tested on 439559-082-T-J2-PDC spheroids viability | compound CC(=O)O[C@H]1C(=O)[C@@]2(C)[C@H]([C@H](OC(=O)c3ccccc3)[C@]3(O)C[C@H](OC(=O)[C@H](O)[C@@H](NC(=O)c4ccccc4)c4ccccc4)C(C)=C1C3(C)C)[C@]1(OC(C)=O)CO[C@@H]1C[C@@H]2O + CN(C)c1ccc(Nc2c3ccc(NC(=O)CCN4CCCC4)cc3nc3cc(NC(=O)CCN4CCCC4)ccc23)cc1
Output: 78.9

Here is another compound to look at.
Task: Lab request: please report viability, T/C under test system 439559-082-T-J2-PDC spheroids viability for C=CCn1c(=O)c2cnc(Nc3ccc(N4CCN(C)CC4)cc3)nc2n1-c1cccc(C(C)(C)O)n1 + Cc1cnc(CNC(=O)c2c(=O)c3ccc(N4CCCN(C)CC4)nc3n3c2sc2ccccc23)cn1
Output: 68.3

====

Tested on: 439559-082-T-J2-PDC spheroids viability
Assay method text: Anticancer human tumor 439559-082-T-J2-PDC cell line growth inhibition [GQUAD];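 note: spheroids exposed to the agents for 7 days before readout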
Conditions used: curve of first compound; second compound 0.316 µM
Assay endpoint: IC50

Task: Any idea what IC50 was measured for COc1ncnc(C2CC2)c1-c1ncc2cnn(Cc3ccc(-c4nc(C(F)(F)F)cn4C(C)C)cc3)c2n1 + Cc1cnc(CNC(=O)c2c(=O)c3ccc(N4CCCN(C)CC4)nc3n3c2sc2ccccc23)cn1 ?
Output: > 10 µM

Task: Item CC[C@@]1(O)C(=O)OCc2c1cc1n(c2=O)Cc2cc3c(CN(C)C)c(O)ccc3nc2-1 + Cc1cnc(CNC(=O)c2c(=O)c3ccc(N4CCCN(C)CC4)nc3n3c2sc2ccccc23)cn1 has what recorded IC50?
Output: > 0.316 µM

# input for lookup
Task: Query (compound): O=C(c1cc(Cc2n[nH]c(=O)c3ccccc23)ccc1F)N1CCN(C(=O)C2CC2)CC1 + Cc1cnc(CNC(=O)c2c(=O)c3ccc(N4CCCN(C)CC4)nc3n3c2sc2ccccc23)cn1 ; field requested: IC50
Output: > 10 µM
